Details: basic group

molecule: CCOC(=O)CCN
pKa: 9.13
//
molecule: CCC1CSC(C(C)C)=N1 (centres undefined)
pKa: 5.28
//
molecule: Nc1ccc(Cl)cc1[N+](=O)[O-]
pKa: -0.88
//
molecule: [NH3+]CCCCc1ccccn1
pKa: 5.56
//
molecule: CC[Si](C)(C)CN
pKa: 10.7
//
molecule: O=C([O-])CC(c1ncc[nH]1)c1ncc[nH]1
pKa: 6.9
//
molecule: CN(C)CCCNC(=O)/C=N/[O-]
pKa: 9.78
//
molecule: CC(C)S(=O)(=O)n1c(N)nc2ccc(/C(=C/C(N)=O)c3cc(F)ccc3F)cc21
pKa: 3.4
//
molecule: C=CCNCCCCCCCCCCC(=O)[O-]
pKa: 9.3
//
molecule: COc1ccc(Nc2ccc(N)cc2)cc1
pKa: 5.9
//
molecule: Cc1ccc([N+](=O)[O-])c2c(NCCC[NH+](C)C)ccnc12
pKa: 6.84
//
molecule: O=c1[nH]c(=S)c2[nH]cnc2[nH]1
pKa: 0.9
//
molecule: Cc1ccc(-c2nnc(-c3ccccc3)o2)cc1
pKa: 1.81
//
molecule: CCCCCC(C)NC (centres undefined)
pKa: 11

---

Conditions: basic group
Reported pKa values for a set of molecules

molecule: Nc1cccc(C(=O)[O-])c1
pKa: 4.7

molecule: CCC1CN1 (stereo not drawn)
pKa: 5.69

molecule: Nc1ncc2[nH]cnc2n1
pKa: 3.8

molecule: OCC1CC2CCN1CC2 (stereo not drawn)
pKa: 10.8

molecule: CNN
pKa: 7.87

molecule: C[Si](C)(C)OC1CN(Cc2ccc(Cl)cc2)C1
pKa: 7.72

molecule: [NH3+]/N=C/c1ncnc2nc[nH]c12
pKa: 2.8

molecule: CC1CCNC(C)(C)C1 (stereo not drawn)
pKa: 11.1

molecule: CSS/C(CCO)=C(/C)N(C=O)Cc1cnc(C)nc1N
pKa: 5.59

molecule: CC(C)NCC[NH2+]C(C)C
pKa: 7.59

molecule: Cc1cc(C)cc(N)c1
pKa: 4.81

molecule: N/C=N/O
pKa: 5.05

molecule: CN(C)c1ccc([N+](=O)[O-])cc1
pKa: 0.69

molecule: NCCCCCCCCC(=O)[O-]
pKa: 11

molecule: Cc1nn(C)c(N(C)C(=O)CN)c1C(=O)c1ccccc1F
pKa: 7.52

molecule: CCCCCCCCNCc1ccc(C)cc1
pKa: 9.47

molecule: Nc1ncnc2ccccc12
pKa: 5.79

molecule: Oc1ccc(O)c2ncccc12
pKa: 4.5

molecule: Cc1cc([S-])[nH+]c([S-])n1
pKa: 6.87

molecule: CC(O)CNCCO (stereo not drawn)
pKa: 8.81

molecule: C1CNCCSCCNC1
pKa: 12

molecule: CN(C)Cc1cc(C(C)(C)C)ccc1O
pKa: 8.55

molecule: Nc1ncnc2c1ncn2CCOCP(=O)([O-])O
pKa: 4.18

molecule: NC(=O)CCCCc1ccccn1
pKa: 5.73

molecule: CCC(O)CN(CC(O)CC)C(C)(C)C (stereo not drawn)
pKa: 9.6

molecule: Brc1c[nH]cn1
pKa: 3.8

molecule: Cc1ccccc1/C(=N\CCCN(C)C)c1ccccc1Cl
pKa: 8.95

molecule: c1ccc2c3c([nH]c2c1)CNCC3
pKa: 8.4

molecule: CS(=O)C(C)(C)C (stereo not drawn)
pKa: -1.71

molecule: Nc1ccc2cccc([N+](=O)[O-])c2c1
pKa: 2.86

molecule: c1ccc(-c2ccnc3c2ccc2c(-c4ccccc4)ccnc23)cc1
pKa: 4.84

molecule: N=C1Cc2ccccc2N1
pKa: 8.15

molecule: Cc1cc(Cn2[nH+]c(C)cc2C)n[nH]1
pKa: 1.2
